biological target: stromelysin (Homo sapiens, UniProt P08254); experiment: Assay of stromelysin inhibition activity (fluorogenic coumarin peptide substrate); conditions: trypsin-activated stromelysin 2 nM, H-150 buffer pH 7.4, room temperature; read-out: Ki(app)
Sequence (P08254 100-477): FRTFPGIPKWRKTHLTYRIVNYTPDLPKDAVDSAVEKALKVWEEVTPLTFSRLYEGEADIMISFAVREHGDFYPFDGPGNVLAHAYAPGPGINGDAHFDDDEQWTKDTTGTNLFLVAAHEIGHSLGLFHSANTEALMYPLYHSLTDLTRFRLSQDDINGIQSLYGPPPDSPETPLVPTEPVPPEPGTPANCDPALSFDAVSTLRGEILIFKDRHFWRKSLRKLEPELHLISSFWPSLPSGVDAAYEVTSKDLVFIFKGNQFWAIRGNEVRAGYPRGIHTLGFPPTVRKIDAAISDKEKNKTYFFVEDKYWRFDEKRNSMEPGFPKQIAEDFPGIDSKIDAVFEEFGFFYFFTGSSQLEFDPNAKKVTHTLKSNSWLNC
readout: Ki (nM)

See these solved cases before continuing.
compound	result_value
CC(C)C(NC(=O)C(Cc1ccc(NC(=O)OCc2ccccc2)cc1)NC(=O)OCc1ccccc1)C(=O)Nc1n[nH]c(=S)s1 (centres unmarked)	62
CC(C)C[C@H](NC(=O)[C@H](Cc1ccccc1)NC(=O)OCc1ccccc1)C(=O)N[C@@H](Cc1c[nH]c2ccccc12)C(=O)Nc1n[nH]c(=S)s1	246

P: CC(C)[C@H](NC(=O)[C@H](Cc1ccccc1)NC(=O)Cc1ccc(-c2ccccc2)cc1)C(=O)Nc1n[nH]c(=S)s1
Q: CSCC[C@H](NC(=O)OCC1c2ccccc2-c2ccccc21)C(=O)Nc1n[nH]c(=S)s1
R: CC(C)C(NC(=O)C(Cc1ccc(OCc2ccc3ccccc3c2)cc1)NC(=O)OCc1ccccc1)C(=O)Nc1n[nH]c(=S)s1 (centres unmarked)
Rank items: key Ki, increasing. Your reply should list the labels following the order given in the request. R, P, Q
(R: 62 nM, P: 135 nM, Q: 195 nM)

----------
target: stromelysin (Homo sapiens, UniProt P08254); experiment: Assay of stromelysin inhibition activity (fluorogenic coumarin peptide substrate); details: trypsin-activated stromelysin 2 nM, H-150 buffer pH 7.4, room temperature; read-out: Ki(app)
readout: Ki (nM)

See these solved cases before continuing.
compound	Ki (nM)
CC(C)[C@H](NC(=O)[C@H](Cc1ccccc1)NC(=O)CCc1ccccc1)C(=O)Nc1n[nH]c(=S)s1	267
CC(C)[C@H](NC(=O)[C@H](Cc1ccccc1)NC(=O)c1ccc(Oc2ccccc2)cc1)C(=O)Nc1n[nH]c(=S)s1	101
CC(C)(NC(=O)C(Cc1ccc(OCc2ccccc2)cc1)NC(=O)OCc1ccccc1)C(=O)Nc1n[nH]c(=S)s1 (centres unmarked)	237
CC(C)[C@H](NC(=O)[C@H](Cc1ccc(F)cc1)NC(=O)OCc1ccccc1)C(=O)Nc1n[nH]c(=S)s1	156
O=C(N[C@@H](Cc1ccc(N(Cc2ccccc2)Cc2ccccc2)cc1)C(=O)NC(C(=O)Nc1n[nH]c(=S)s1)c1ccccc1)OCc1ccccc1 (some centres unmarked)	205

P: CC(C)C[C@H](NC(=O)OC(C)(C)C)C(=O)Nc1n[nH]c(=S)s1
Q: O=C(N[C@@H](Cc1c[nH]c2ccccc12)C(=O)Nc1n[nH]c(=S)s1)OCC1c2ccccc2-c2ccccc21
R: CC(C)[C@H](NC(=O)Cc1ccc(-c2ccccc2)cc1)C(=O)Nc1n[nH]c(=S)s1
Rank items: key Ki, increasing. Your reply should list the labels following the order given in the request. R, Q, P
(R: 100 nM, Q: 341 nM, P: 10200 nM)

----------
target: human neutrophil collagenase (Homo sapiens, UniProt P22894); test: Assay of human neutrophil collagenase inhibition activity; conditions: human neutrophil collagenase 2 nM, H-150 buffer pH 7.4; read-out: Ki(app)
Sequence (P22894 101-467): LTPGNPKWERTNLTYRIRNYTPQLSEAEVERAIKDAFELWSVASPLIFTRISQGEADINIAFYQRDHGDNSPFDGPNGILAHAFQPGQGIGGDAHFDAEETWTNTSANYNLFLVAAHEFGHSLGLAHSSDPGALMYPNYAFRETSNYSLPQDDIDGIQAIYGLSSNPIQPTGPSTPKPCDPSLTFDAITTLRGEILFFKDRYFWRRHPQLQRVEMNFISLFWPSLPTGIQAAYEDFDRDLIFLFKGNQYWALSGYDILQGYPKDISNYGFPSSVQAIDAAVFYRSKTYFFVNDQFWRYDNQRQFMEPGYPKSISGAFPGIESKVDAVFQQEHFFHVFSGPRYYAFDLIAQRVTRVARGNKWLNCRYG
pKi: −log10 of the molar value.
readout: pKi

compound	system	result_value
O=C(CCC(NC(=O)OCc1ccccc1)C(=O)NC(C(=O)Nc1n[nH]c(=S)s1)c1ccccc1)NCCc1ccccc1 (centres unmarked)	human neutrophil collagenase (Homo sapiens, UniProt P22894)	9.27

P: CC(C)C(NC(=O)C(Cc1ccc(NC(=O)OCc2ccccc2)cc1)NC(=O)OCc1ccccc1)C(=O)Nc1n[nH]c(=S)s1 (centres unmarked)
Q: O=C(N[C@@H](Cc1ccccc1)C(=O)N[C@@H](CCc1ccccc1)C(=O)Nc1n[nH]c(=S)s1)OCc1ccccc1
When their pKi values are compared, which is larger, P or Q ? Reply with the label of the item you choose. P

A: CC(C)C[C@H](NC(=O)[C@H](Cc1ccccc1)NC(=O)OCc1ccccc1)C(=O)N[C@@H](Cc1c[nH]c2ccccc12)C(=O)Nc1n[nH]c(=S)s1
B: CSCC[C@H](NC(=O)[C@H](Cc1ccccc1)NC(=O)OCc1ccccc1)C(=O)Nc1n[nH]c(=S)s1
C: CC(C)[C@H](NC(=O)[C@H](Cc1c[nH]c2ccccc12)NC(=O)[C@H](Cc1ccccc1)NC(=O)OCc1ccccc1)C(=O)Nc1n[nH]c(=S)s1
Rank items: key pKi, increasing. Your reply should list the labels following the order given in the request. B, C, A
(B: 8.11, C: 8.62, A: 8.84)

I: CC(C)(C)OC(=O)N[C@@H](Cc1ccc(OCc2ccccc2)cc1)C(=O)NC(C(=O)Nc1n[nH]c(=S)s1)c1ccccc1 (some centres unmarked)
II: CC(C)[C@H](NC(=O)[C@H](Cc1ccccc1)NC(=O)c1ccc(-c2ccccc2)cc1)C(=O)Nc1n[nH]c(=S)s1
When their pKi values are compared, which is larger, I or II ? Reply with the label of the item you choose. I

I: CC(C)[C@H](NC(=O)[C@H](Cc1ccccc1)NC(=O)c1ccc(Oc2ccccc2)cc1)C(=O)Nc1n[nH]c(=S)s1
II: CC(C)[C@H](NC(=O)[C@H](Cc1ccccc1)NC(=O)c1ccc(NS(=O)(=O)c2ccc(C(C)(C)C)cc2)cc1)C(=O)Nc1n[nH]c(=S)s1
When their pKi values are compared, which is larger, I or II ? Reply with the label of the item you choose. II
(II: 8.98, I: 8.78)

----------
pKi: −log10 of the molar value. Where a SMILES comes first, the peptide text is derived from it. [ ]: non-standard residue; d: D form. The star is where a group is joined. Phg = N[CH](C(=O)O)c1ccccc1; Cbz = O=C(OCc1ccccc1)*; X1 = S=c1[nH]nc(N*)s1; Bn = c1ccc(C*)cc1
In what follows, each item is paired with its pKi for 72 kD gelatinase (Homo sapiens, UniProt P08253).
readout: pKi

A: O=C(CNC(=O)OCc1ccccc1)NC(Cc1ccc(O)cc1)C(=O)NC(Cc1ccc(OCc2ccccc2)cc1)C(=O)NC(C(=O)Nc1n[nH]c(=S)s1)c1ccccc1 (stereo not drawn) (Cbz-GYY(Bn)[Phg]-X1; configuration not given here)
B: CC(C)C(NC(=O)C(Cc1ccc(NC(=O)OCc2ccccc2)cc1)NC(=O)OCc1ccccc1)C(=O)Nc1n[nH]c(=S)s1 (stereo not drawn)
C: O=C(CCC(NC(=O)OCc1ccccc1)C(=O)NC(C(=O)Nc1n[nH]c(=S)s1)c1ccccc1)NCCc1ccccc1 (stereo not drawn)
Using measured pKi, arrange the molecules from above in descending sequence. Your reply should list the labels following the order given in the request. A, B, C
(A: 10.14, B: 9.54, C: 9.28)

----------
biological target: UniProtKB P08254; test: Assay of stromelysin inhibition activity (fluorogenic coumarin peptide substrate); settings: trypsin-activated stromelysin 2 nM, H-150 buffer pH 7.4, room temperature; read-out: Ki(app)
pKi: −log10 of the molar value.
readout: pKi

a: CC(C)[C@H](NC(=O)[C@H](Cc1c[nH]c2ccccc12)NC(=O)OCc1ccccc1)C(=O)Nc1n[nH]c(=S)s1
b: CC(C)[C@H](NC(=O)[C@H](Cc1ccccc1)NC(=O)OCc1ccccc1)C(=O)Nc1n[nH]c(=S)s1
c: O=C(NC(CCC(=O)N(Cc1ccccc1)Cc1ccccc1)C(=O)NC(C(=O)Nc1n[nH]c(=S)s1)c1ccccc1)OCc1ccccc1 (stereo not shown)
d: CC(C)[C@H](NC(=O)[C@H](Cc1ccccc1)NC(=O)c1ccc(NS(=O)(=O)c2ccc(C(C)(C)C)cc2)cc1)C(=O)Nc1n[nH]c(=S)s1
Using measured pKi, arrange the compounds from above in descending sequence. Your reply should list the labels following the order given in the request. c, d, b, a
(c: 7.72, d: 7.36, b: 6.55, a: 6.13)

----------
target: stromelysin (Homo sapiens, UniProt P08254); experiment: Assay of stromelysin inhibition activity (fluorogenic coumarin peptide substrate); format: biochemical; conditions: trypsin-activated stromelysin 2 nM, H-150 buffer pH 7.4, room temperature; read-out: Ki(app)
Where a SMILES comes first, the peptide text is derived from it. [ ]: non-standard residue; d: D form. The star is where a group is joined. Phg = N[CH](C(=O)O)c1ccccc1; Cbz = O=C(OCc1ccccc1)*; X1 = S=c1[nH]nc(N*)s1; Bn = c1ccc(C*)cc1
readout: Ki (nM)

See these solved cases before continuing.
compound	system	Ki / nM
CC(C)(C)[C@H](NC(=O)[C@H](Cc1ccc(OCc2ccccc2)cc1)NC(=O)OCc1ccccc1)C(=O)Nc1n[nH]c(=S)s1	stromelysin (Homo sapiens, UniProt P08254)	89
CC[C@H](C)[C@H](NC(=O)OCc1ccccc1)C(=O)N[C@H](C(=O)Nc1n[nH]c(=S)s1)C(C)C	stromelysin (Homo sapiens, UniProt P08254)	940
CC(C)[C@H](NC(=O)[C@H](Cc1cccc2ccccc12)NC(=O)OCc1ccccc1)C(=O)Nc1n[nH]c(=S)s1	stromelysin (Homo sapiens, UniProt P08254)	190
CSCC[C@H](NC(=O)[C@H](CC(C)C)NC(=O)OCc1ccccc1)C(=O)Nc1n[nH]c(=S)s1	stromelysin (Homo sapiens, UniProt P08254)	490
CC(C)[C@H](NC(=O)[C@H](Cc1ccccc1)NS(=O)(=O)c1cccc2cccnc12)C(=O)Nc1n[nH]c(=S)s1	stromelysin (Homo sapiens, UniProt P08254)	531

I: O=C(CNC(=O)OCc1ccccc1)NC(Cc1ccc(O)cc1)C(=O)NC(Cc1ccc(OCc2ccccc2)cc1)C(=O)NC(C(=O)Nc1n[nH]c(=S)s1)c1ccccc1 (centres unmarked) (Cbz-GYY(Bn)[Phg]-X1; configuration not given here)
II: O=C(N[C@@H](Cc1ccccc1F)C(=O)Nc1n[nH]c(=S)s1)OCc1ccccc1
III: O=C(CCC(NC(=O)OCc1ccccc1)C(=O)NC(C(=O)Nc1n[nH]c(=S)s1)c1ccccc1)NCCc1ccccc1 (centres unmarked)
Rank items: key Ki, increasing. Your reply should list the labels following the order given in the request. III, I, II
(III: 57 nM, I: 110 nM, II: 630 nM)

a: CC(C)(C)OC(=O)NCCCC[C@H](NC(=O)OCc1ccccc1)C(=O)N[C@@H](Cc1ccc(OCc2ccccc2)cc1)C(=O)NC(C(=O)Nc1n[nH]c(=S)s1)c1ccccc1 (some centres unmarked)
b: CC(C)[C@H](NC(=O)[C@H](Cc1ccc2ccccc2c1)NC(=O)OCc1ccccc1)C(=O)Nc1n[nH]c(=S)s1
c: CC(C)[C@H](NC(=O)[C@H](Cc1ccccc1)NC(=O)c1ccc(-c2ccccc2)cc1)C(=O)Nc1n[nH]c(=S)s1
Rank items: key Ki, increasing. Your reply should list the labels following the order given in the request. c, a, b
(c: 82 nM, a: 148 nM, b: 221 nM)
